Biological target: MBP-hNAA80 (Homo sapiens)
Construct: made in house; host or cells: Escherichia coli BL21 star
Sequence (Q93015 1-286): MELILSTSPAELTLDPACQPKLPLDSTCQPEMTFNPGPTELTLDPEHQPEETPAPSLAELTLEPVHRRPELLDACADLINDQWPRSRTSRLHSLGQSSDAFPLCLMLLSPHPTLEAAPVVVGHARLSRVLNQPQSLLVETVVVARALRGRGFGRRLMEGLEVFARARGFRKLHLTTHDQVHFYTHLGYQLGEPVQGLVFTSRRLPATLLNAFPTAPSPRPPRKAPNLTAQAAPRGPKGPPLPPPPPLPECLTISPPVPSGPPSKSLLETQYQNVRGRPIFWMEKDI
Assay: In vitro DTNB Nt-acetyltransferase inhibitor assay
Assay type: biochemical
Details: 300 μM Ac-CoA, 300 μM substrate peptide, Tris pH 8.5, triplicates, ± standard deviation
Experimental: The enzymatic activity of MBP-hNAA80 was measured using a 5,5′-dithiobis-(2-nitrobenzoic acid, DTNB) assay as described previously by Foyn et al. ([Foyn et al., 2017]) and Drazic et al. ([Drazic et al., 2018]) Briefly, the thiol group exposed in the enzymatic product CoA cleaves DTNB and produces 2-nitro-5-thiobenzonate (TNB^−) which ionize to TNB^2- in neutral or alkaline pH and is readily quantified by measuring the absorbance at 412 nm. […]
*1 amine or outer side, *2 acyl side, *3 side chain or, on linkers, in order; H or OH if unused. Where a SMILES comes first, the peptide text is derived from it. [ ]: non-standard residue; d: D form. The star is where a group is joined. Pantoyl(4-O-3'-P-ADP) = CC(C)(COP(=O)(O)OP(=O)(O)OC[C@H]1O[C@@H](n2cnc3c(N)ncnc32)[C@H](O)[C@@H]1OP(=O)(O)O)[C@@H](O)C(=O)*; NHCH2CH2SCH2CO = O=C(CSCCN[*:1])[*:2]; βAla = NCCC(=O)O
Experimental Readout: pIC50
Answers are plain numbers, as −log10 of the molar value.

Give a short answer stating reported pIC50 for CC[C@H](C)[C@H](NC(=O)[C@H](CCC(=O)O)NC(=O)[C@H](CC(=O)O)NC(=O)[C@H](CCC(=O)O)NC(=O)CSCCNC(=O)CCNC(=O)[C@H](O)C(C)(C)COP(=O)(O)OP(=O)(O)OC[C@H]1O[C@@H](n2cnc3c(N)ncnc32)[C@H](O)[C@@H]1OP(=O)(O)O)C(N)=O [CoA-EDEI-NH2, CoA-Ac-EDEI-NH2] ({Pantoyl(4-O-3'-P-ADP)-βAla}-[NHCH2CH2SCH2CO]EDEI-NH2) .
6.12

Give a short answer stating reported pIC50 for CC(C)C[C@H](NC(=O)[C@H](CCC(=O)O)NC(=O)[C@H](CC(=O)O)NC(=O)[C@H](CCC(=O)O)NC(=O)CSCCNC(=O)CCNC(=O)[C@H](O)C(C)(C)COP(=O)(O)OP(=O)(O)OC[C@H]1O[C@@H](n2cnc3c(N)ncnc32)[C@H](O)[C@@H]1OP(=O)(O)O)C(N)=O [CoA-EDEL-NH2, CoA-Ac-EDEL-NH2] ({Pantoyl(4-O-3'-P-ADP)-βAla}-[NHCH2CH2SCH2CO]EDEL-NH2) .
6.82

// moving on: another record for pIC50
Give a short answer stating reported pIC50 for CC(C)C[C@H](NC(=O)[C@H](CCC(=O)O)NC(=O)[C@H](CCC(=O)O)NC(=O)[C@H](CCC(=O)O)NC(=O)CSCCNC(=O)CCNC(=O)[C@H](O)C(C)(C)COP(=O)(O)OP(=O)(O)OC[C@H]1O[C@@H](n2cnc3c(N)ncnc32)[C@H](O)[C@@H]1OP(=O)(O)O)C(N)=O [CoA-EEEL-NH2, CoA-Ac-EEEL-NH2] ({Pantoyl(4-O-3'-P-ADP)-βAla}-[NHCH2CH2SCH2CO]EEEL-NH2) .
5.94
